Data origin: ChEMBL document CHEMBL4364313

Answer each item with its documented deltaT.
- System: Mus musculus
- method description: Inhibition of 8-OH-DPAT-induced hypothermia in CD-1 mouse assessed change in body temperature at 20 mg/kg, ip pretreated for 45 mins followed by 8-OH-DPAT addition and measured after 30 mins by thermometric method
- Type: functional, organism-based
State the result as a value with its unit after it.

In one line, give reported deltaT of the entry O=c1c(-c2ccc(F)cc2)c2n(c(=O)n1CCCCN1CCCC(c3c[nH]c4ccccc34)C1)CCCC2 (stereo not given) . -0.2 °C

In one line, give reported deltaT of the entry O=c1c(-c2ccccc2F)c2n(c(=O)n1CCCCN1CCCC(c3c[nH]c4ccccc34)C1)CCCC2 (stereo not given) . -1.8 °C

In one line, give reported deltaT of the entry O=c1c(-c2ccc(Cl)cc2)c2n(c(=O)n1CCCCN1CCCC(c3c[nH]c4ccccc34)C1)CCCC2 (stereo not given) . -1.1 °C

In one line, give reported deltaT of the entry O=c1c(-c2ccc(F)cc2)c2n(c(=O)n1CCCCN1CCCC(c3c[nH]c4ccc(F)cc34)C1)CCCC2 (stereo not given) . 0.2 °C

In one line, give reported deltaT of the entry O=c1c(-c2ccccc2)c2n(c(=O)n1CCCCN1CCCC(c3c[nH]c4ccccc34)C1)CCCC2 (stereo not given) . -1.1 °C
